# ASSAY_REMARKS: Cytotoxicity against mouse RAW264.7 cells assessed as cell viability at 50 uM incubated for 24 hrs by Alamar-Blue assay
# Assay type: cell-based
# CONDITION: read-out: Activity

SAMPLE_SMILES	UNITS	viability at 24 h, 50 µM
COc1ccc(/C=C(/C(=O)O)c2ccc(OC)c(OC)c2)cc1OC	%	121
COC(=O)/C(=C/c1cccc(OC)c1)c1ccc(OC)c(OC)c1	%	76.5
COC(=O)c1cc2cc(OC)c(OC)cc2c2cc(OC)ccc12	%	99.7
COc1ccc(/C=C(\C(=O)O)c2ccc(OC)c(OC)c2)cc1OC	%	106
COC(=O)/C(=C\c1ccc(OC)c(OC)c1)c1ccc(OC)c(OC)c1	%	91.1
COC(=O)c1cc2cc(OC)ccc2c2cc(OC)c(OC)cc12	%	99.3
COC(=O)/C(=C/c1ccc(OC)c(OC)c1)c1ccc(OC)cc1	%	66.7
COC(=O)/C(=C/c1ccc2c(c1)OCO2)c1ccc(OC)c(OC)c1	%	88
CCN(CC)C(=O)/C(=C/c1ccc(OC)c(OC)c1)c1ccc(OC)c(OC)c1	%	111
COC(=O)/C(=C/c1ccc(OC)c(OC)c1)c1ccc(OC)c(OC)c1	%	114
COc1ccc(/C(=C/c2ccc3c(c2)OCO3)C(=O)O)cc1OC	%	103
COC(=O)/C(=C\c1ccc2c(c1)OCO2)c1ccc(OC)c(OC)c1	%	56.1
COC(=O)c1cc2cc3c(cc2c2cc(OC)c(OC)cc12)OCO3	%	101
CCN(CC)C(=O)c1cc2cc(OC)c(OC)cc2c2cc(OC)c(OC)cc12	%	94.7
COc1ccc(/C(=C\c2ccc3c(c2)OCO3)C(=O)O)cc1OC	%	123
COc1ccc(/C=C(\C#N)c2ccc(OC)c(OC)c2)cc1OC	%	96.7
COC(=O)c1cc2cc(OC)c(OC)cc2c2cc(OC)c(OC)cc12	%	101
COc1cc2cc(C#N)c3cc(OC)c(OC)cc3c2cc1OC	%	102
COc1cc2c(C(=O)O)cc3cc4c(cc3c2cc1OC)OCO4	%	107
COc1cc2cc(C(=O)O)c3cc(OC)c(OC)cc3c2cc1OC	%	101
